molecular target: Dual specificity protein kinase CLK4 (Homo sapiens) (UniProt Q9HAZ1); experiment: qHTS Assay for Inhibitors of CDC-like Kinase 4 (Kinase-Glo Assay) (AID 1770); conditions: recombinant Clk4, Kinase-Glo ATP depletion luminescence; series mostly up to 66.7 µM; further: nearly all actives have a fitted effect of over 65% in size
Sequence (Q9HAZ1 whole entry, looked up): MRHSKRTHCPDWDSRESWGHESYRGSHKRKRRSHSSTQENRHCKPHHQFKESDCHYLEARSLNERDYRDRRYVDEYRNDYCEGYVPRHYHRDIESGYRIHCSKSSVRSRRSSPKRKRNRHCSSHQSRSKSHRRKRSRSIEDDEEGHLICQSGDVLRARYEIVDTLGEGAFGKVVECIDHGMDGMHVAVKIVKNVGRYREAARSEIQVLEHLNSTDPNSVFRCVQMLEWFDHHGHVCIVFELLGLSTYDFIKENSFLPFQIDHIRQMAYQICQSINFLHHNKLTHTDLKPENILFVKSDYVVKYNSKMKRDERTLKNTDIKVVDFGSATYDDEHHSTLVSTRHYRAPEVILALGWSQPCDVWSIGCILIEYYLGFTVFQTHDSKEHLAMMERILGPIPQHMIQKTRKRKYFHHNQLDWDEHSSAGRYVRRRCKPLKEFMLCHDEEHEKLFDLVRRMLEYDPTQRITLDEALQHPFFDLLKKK
Results filed as inconclusive are left out. Calls of active or inactive are those of the source. The call rests on the fitted dose curve; in most records, active means well fitted inhibition curve with a large enough effect; inconclusive means small, poorly fitted or top-dose-only effect; inactive means flat fitted curve, though single readings scatter.
The reply should name one outcome from active, inactive

For `O=c1c(CCc2ccccc2)nc2cnc(N3CCOCC3)nc2n1-c1ccccc1` , which call appears in the assay record?
inactive

Which outcome was assigned to `COc1ccc2[nH]cc(CCNc3ncncc3-c3ccc4c(c3)OCO4)c2c1` in this test?
active

Which outcome did this test record for the compound `CN(C)c1ncnc2ccc(-c3cccc(NS(C)(=O)=O)c3)cc12` ?
active

Just curious, what result did `CN(C)c1ncc2nc(CCc3ccccc3)c(=O)n(CCC#N)c2n1` get here?
inactive

Record request — test call for `COc1ccc(Oc2ncc3nc(-c4ccc(F)cc4)c(=O)n(C[C@H]4CCCO4)c3n2)cc1`
inactive

Values from PubChem BioAssay (NCATS)
